study_system: Pin1 (Homo sapiens)
experiment_notes: Photoaffinity labeling of Pin1 with [3H]ATRA
Format: binding
run_conditions: SDS gels
pKd: −log10 of the molar value.

{"columns": ["molecule", "pKd"],
 "data": [
  ["CC1=C(/C=C/C(C)=C/C=C/C(C)=C/C(=O)O)C(C)(C)CCC1 [[^3H]-ATRA, all-trans-[11,12-3H]retinoic acid]", 6.10]
]}

###

study_system: Pin1 (Homo sapiens, UniProt Q13526)
Sequence (Q13526 whole entry): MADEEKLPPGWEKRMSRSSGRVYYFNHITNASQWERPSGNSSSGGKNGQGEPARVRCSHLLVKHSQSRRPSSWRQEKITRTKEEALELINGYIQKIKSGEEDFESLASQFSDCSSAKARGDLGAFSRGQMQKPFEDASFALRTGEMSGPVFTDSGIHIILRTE
Format: binding
run_conditions: incubation 0.5 hour
measured_metric: Pin1 binding (FP assay)

{"columns": ["compound", "measured_metric", "result"],
 "data": [
  ["CC1=C(/C=C/C(C)=C/C=C/C(C)=C/CO)C(C)(C)CCC1", "Pin1 binding (FP assay)", "totally inactive"],
  ["CC(=O)OC/C=C(C)/C=C/C=C(C)/C=C/C1=C(C)CCCC1(C)C [retinyl acetate]", "Pin1 binding (FP assay)", "totally inactive"],
  ["CC1=C(/C=C/C(C)=C/C=C/C(C)=C/C=O)C(C)(C)CCC1", "Pin1 binding (FP assay)", "totally inactive"]
]}
